# protocol_summary: solvent given as SMILES
# assay_conditions: in ClC(Cl)Cl
Reported emission maximum values are given for each entry in this list.
Report as a plain number; the unit nm is understood.

Solved entries (count: 2):
compound: F[B-]1(F)n2cccc2C(c2ccccc2)=C2C=CC(c3cccc(OC4=[N+]5C(=C(c6ccccc6)c6cc(Br)c(Br)n6[B-]5(F)F)C=C4Br)c3)=[N+]21
unit: nm
emission maximum: 568
--
compound: Cc1ccc(C2=C3C=CC(c4ccccc4)=[N+]3[B-](F)(F)n3c(Cl)ccc32)cc1
unit: nm
emission maximum: 555

Sample COc1ccc2c(c1)CCc1c-2nc(N)c(C#N)c1-c1ccc(Br)cc1 ; emission maximum observed: 415

Form field emission maximum, entry N#Cc1c(C#N)c2cc(Cl)ccc2c2ccc(Cl)cc12 : 388

// field: emission maximum; key: F[B-]1(F)OC(c2ccc(C(F)(F)F)cc2)=Cc2cc(Cl)nc[n+]21 ; value = 426

Entry under test: CN(C)c1ccc(-c2cc(-c3ccc4ccccc4c3)nc(-c3ccccc3)n2)cc1 . Its emission maximum was 510

Recorded result, CCCCCCOc1ccc(C#Cc2ccc(-c3ccc(-c4ccc(C#Cc5ccc(OCCCCCC)c(OCCCCCC)c5)s4)c4nsnc34)s2)cc1OCCCCCC , emission maximum: 648

Measured emission maximum, O=C1[C@@H]2[C@H](C(=O)N1c1cccc3cc4ccccc4cc13)[C@@H]1C=C[C@H]2C1 : 392

###

# protocol_summary: solvent given as SMILES
# assay_conditions: in C1CCCCC1
# key: entry, value: emission maximum
Reply numerically in nm, unit not repeated.

Given item CCCCNc1ccc(NCCCC)c2c1C(=O)c1ccccc1C2=O , the value recorded as its emission maximum is 665

Entry CC1(C)CC(NCc2ccc3ccc4cccc5ccc2c3c45)CC(C)(C)N1 — recorded emission maximum = 375

Recorded result, CC(C)(C)c1ccc(C2=C(Br)C3=C(c4ccccc4)c4c(Br)c(-c5ccc(C(C)(C)C)cc5)c(-c5ccc(C(C)(C)C)cc5)n4[B-](F)(F)[N+]3=C2c2ccc(C(C)(C)C)cc2)cc1 , emission maximum: 614

Record CC1=[N+]2C(=C(c3ccc(C#N)cc3)c3ccc(C)n3[B-]2(F)F)C=C1 . Reported emission maximum: 539

So, CCCC1(CCC)c2cc(-c3ccc(C(C)(C)C)cc3)ccc2-c2ccc(-c3ccc4c(c3)C(CCC)(CCC)c3cc(-c5ccc(C(C)(C)C)cc5)ccc3-4)cc21 ? Its emission maximum was 395

For this molecule ( C1=Cc2ccc3ccccc3c2NB1c1ccccc1 ), measured emission maximum is 383

Value of emission maximum reported for the molecule Cc1ccc(C(=O)/C=C2\C(=O)Nc3ccccc32)cc1C is 387

Per the record, CN(C)c1ccc(-c2nc(-c3ccccc3)c3ccccn23)cc1 has emission maximum of 482

Given item CC1=[N+]2C(=C(NCc3ccccc3)c3ccc(C)n3[B-]2(F)F)C=C1c1cc2n(c1)[B-](F)(F)[N+]1=CC=CC1=C2c1c(C)cc(C)cc1C , the value recorded as its emission maximum is 636

###

# protocol_summary: solvent given as SMILES
# assay_conditions: in ClC(Cl)Cl
assay_readout: emission maximum (nm)
Write the value in nm as a bare number.

compound: CC(C)(C)c1ccc(Oc2cc3c4c(cc(Oc5ccc(C(C)(C)C)cc5)c5c6c(Oc7ccc(C(C)(C)C)cc7)cc7c8c(cc(Oc9ccc(C(C)(C)C)cc9)c(c2c45)c86)C(=O)N(c2ccccc2)C7=O)C(=O)N(c2ccccc2)C3=O)cc1
emission maximum (nm): 617

For this compound ( CCCCC1(CCCC)c2cc(-c3ccc(C=C4C(=O)c5ccccc5C4=O)cc3)ccc2-c2ccc(-c3ccc(C=C4C(=O)c5ccccc5C4=O)cc3)cc21 ), measured emission maximum is 527

get_value(item= CCOC(=O)/C=C/C1=C(c2ccc(C)cc2)C2=Nc3c(-c4ccc(C)cc4)c(Br)c(-c4ccc(C)cc4)n3[B-](F)(F)[N+]2=C1c1ccc(C)cc1 , readout=emission maximum) returns 703

response.value for COc1ccc(-c2c(-c3ccc(C)cc3)c3n(c2-c2ccc(C)cc2)[B-](F)(F)[N+]2=C(c4ccc(C)cc4)C(/C=C/C(=O)OC4CC[C@@]5(C)C(=CC[C@H]6[C@@H]7CC[C@H]([C@H](C)CCCC(C)C)[C@@]7(C)CC[C@@H]65)C4)=C(c4ccc(C)cc4)C2=N3)cc1 (stereo partly specified) (field: emission maximum) = 702

The recorded emission maximum for entry C(=N\c1ccc(-c2cn3nc(-c4cccs4)sc3n2)cc1)/c1c2ccccc2cc2ccccc12 equals 526

The recorded emission maximum for CCCC1=CC2=C(c3c(C)cc(C)cc3C)c3cc(CCC)c(-c4ccc5ccc6cccc7ccc4c5c67)n3[B-](F)(F)[N+]2=C1c1ccc2ccc3cccc4ccc1c2c34 is 626

Data point: CCCCCCN1C(=O)c2cccc3c(-c4cccs4)ccc(c23)C1=O ; emission maximum = 465

###

# protocol_summary: solvent given as SMILES
# assay_conditions: in Cc1ccccc1
assay_readout: emission maximum (nm)
Write it as a number; the unit nm goes unstated.

# count of solved cases: 2
compound: CC1(C)OB(c2cc3ccc4cc(B5OC(C)(C)C(C)(C)O5)cc5ccc(c2)c3c45)OC1(C)C
emission maximum [nm]: 400

compound: CCCCc1ccc(-n2c3c(c4c2c2c(n4-c4ccc(CCCC)cc4)-c4ccc(C(F)(F)F)cc4NB2c2ccccc2)B(c2ccccc2)Nc2cc(C(F)(F)F)ccc2-3)cc1
emission maximum [nm]: 413

emission maximum recorded for this molecule, C(=C\c1cc(/C=C/c2ccc(N(c3ccccc3)c3ccccc3)cc2)nc(/C=C/c2ccc(N(c3ccccc3)c3ccccc3)cc2)n1)/c1ccc(N(c2ccccc2)c2ccccc2)cc1 , is 479

Summary for this molecule, N#Cc1c(-n2c3ccccc3c3cc(I)ccc32)c(C#N)c(-n2c3ccccc3c3cc(I)ccc32)c(-n2c3ccccc3c3cc(I)ccc32)c1-n1c2ccccc2c2cc(I)ccc21 : emission maximum is 518

The molecule identified as CN(C)c1ccc(-c2nc3c(c4c2-c2ccc(C#N)cc2CC4)-c2ccc(C#N)cc2CC3)cc1 registered its emission maximum at 469

The reported value for CCn1c2cc(OC)ccc2c2c3nsnc3c3c4ccc(OC)cc4n(CC)c3c21 in terms of emission maximum is 517

# emission maximum of O=S(=O)(c1ccc(N(c2ccccc2)c2ccccc2)cc1)c1ccc(N(c2ccccc2)c2ccccc2)cc1 = 402

###

# protocol_summary: solvent given as SMILES
# assay_conditions: in C1CCCCC1
assay_readout: emission maximum (nm)
I only need the number, in nm, no unit after it.

Look over these answered cases.
compound: COc1ccc(/C=C(\C)c2nc3ccccc3s2)cc1
emission maximum, nm: 400
//
compound: Cc1cc(C)c(B2c3cc(C(C)(C)C)ccc3-c3cccc4cc(C(C)(C)C)cc2c34)c(C)c1
emission maximum, nm: 431
//
compound: c1ccc(-c2nc(-c3cc(-n4c5ccccc5c5ccccc54)cc(-n4c5ccccc5c5ccccc54)c3)nc(-c3cc(-n4c5ccccc5c5ccccc54)cc(-n4c5ccccc5c5ccccc54)c3)n2)cc1
emission maximum, nm: 438.78
//
compound: Cc1cc(C)c(B2c3cc(C(C)(C)C)ccc3-c3c(-c4ccccc4)ccc4cc(C(C)(C)C)cc2c34)c(C)c1
emission maximum, nm: 470
//
compound: c1ccc(C2CCN3COc4c5ccccc5c5c6c7c(c2c3c46)C(c2ccccc2)CCN7CO5)cc1 (stereo not drawn)
emission maximum, nm: 535

Recorded result, CCCCCCOc1ccc(C#Cc2ccc(-c3ccc(-c4ccc(C#Cc5ccc(OCCCCCC)c(OCCCCCC)c5)s4)c4nsnc34)s2)cc1OCCCCCC , emission maximum: 600

Notebook: c1ccc2c(-c3ccc4sc5ccc(-c6c7ccccc7cc7ccccc67)cc5c4c3)c3ccccc3cc2c1 , emission maximum read as 399.14

Input CC(C)(C)[Si](C)(C)c1ccc([Si](C)(C)C(C)(C)C)c2ccccc12 . Output emission maximum: 335

###

Each entry below lists one item and its recorded emission maximum value.
# protocol_summary: solvent given as SMILES
# assay_conditions: in ClCCl
Returns: string containing the numeric result and its unit.

compound: c1ccc2cc(-c3c4ccccc4c(-c4ccc(-n5c6ccccc6c6ccccc65)cc4)c4ccccc34)ccc2c1
emission maximum: 427 nm

Input C(=C\c1ccncn1)/c1ccc(N(c2ccccc2)c2ccc(/C=C/c3ccncn3)cc2)cc1 . Output emission maximum: 555 nm

emission maximum for COc1cc(N(c2ccc(C=C(C#N)C#N)c(OC)c2)c2ccc(C=C(C#N)C#N)c(OC)c2)ccc1C=C(C#N)C#N is 531 nm

The compound listed as CN(C)c1ccc(-c2nc(-c3ccccc3)c3ccccn23)cc1 has a reported emission maximum of 495 nm

Record Cc1ccc(N(c2ccc(C)cc2)c2ccc(-c3ccc(-c4ccc(N(c5ccc(C)cc5)c5ccc(C)cc5)cc4)c4nsnc34)cc2)cc1 , field emission maximum: 609 nm

What the record says about COc1ccc(C#Cc2ncc(-c3ccccc3)o2)cc1OC : emission maximum is 390 nm

Noted for CCCCN1C(=O)C2=C(c3ccc(Br)cc3)NC(=O)C2=C1c1ccc(Br)cc1 : its emission maximum reads 531 nm

// emission maximum lookup, compound = CCN(CC)c1ccc2cc(C#N)/c(=N\C(=O)c3ccco3)oc2c1 , result: 460 nm

Consider CCCCC(CC)COc1ccc2nc(-c3ccc(-c4ccc(OC)cc4)s3)sc2c1 (stereo unspecified) . Its measured emission maximum is 434 nm

Short answer for CCN(CC)c1ccc2cc3c([o+]c2c1)/C(=C/Nc1ccccc1)CCC3 : emission maximum was 647 nm

The compound CCCCCCN(CCCCCC)c1ccc(C#Cc2ccc([N+](=O)[O-])cc2)cc1 showed emission maximum equal to 618 nm

c1ccc2c(c1)c1ccccc1c1ncncc21 has a reported emission maximum of 368 nm

emission maximum in this record for CON(OC)c1cc2c3cc(-c4c(C)cc(C)cc4C)cc4c5cc(-c6c(C)cc(C)cc6C)cc6c7cc(B(c8c(C)cc(C)cc8C)c8c(C)cc(C)cc8C)cc8c9cc(-c%10c(C)cc(C)cc%10C)cc%10c%11cc(-c%12c(C)cc(C)cc%12C)cc%12c(c1)c2c1c(c43)c(c65)c(c78)c(c9%10)c1c%11%12 : 585 nm

Kindly note the recorded emission maximum for COc1ccc(-c2cnc(-c3cccnc3)o2)cc1OC , which is 420 nm

Please fill in: emission maximum reported for COC(=O)c1ccc2ccc3cccc4ccc1c2c34 = 390 nm

Summary for this compound, CCCCCCC1(CCCCCC)c2cc(-c3nc(-c4ccc5c(c4)C(CCCCCC)(CCCCCC)c4cc(N6c7ccccc7Sc7ccccc76)ccc4-5)nc(-c4ccc5c(c4)C(CCCCCC)(CCCCCC)c4cc(N6c7ccccc7Sc7ccccc76)ccc4-5)n3)ccc2-c2ccc(N3c4ccccc4Sc4ccccc43)cc21 : emission maximum is 650 nm
